assay: Occurrence of plasma and urine metabolites in volunteers after consuming lemon or orange extract; type: in vivo, human; details: human, in vivo
Attribute Measured: Occurrence Plasma LE (number of volunteers in whom metabolite was detected)

Check out these entries, answers already filled in.
1. COc1ccc(C2CC(=O)c3c(O)cc(O)cc3O2)cc1OS(=O)(=O)O (centres unmarked) [M14, Hesperetin 3'-O-sulfate]; 16
2. COc1cc([C@@H]2CC(=O)c3c(O)cc(O)cc3O2)ccc1O; 15
3. O=C1C[C@@H](c2ccc(O)c(O)c2)Oc2cc(O)cc(O)c21; 16
4. COc1ccc(C2CC(=O)c3c(O)cc(O)cc3O2)cc1O[C@@H]1O[C@H](C(=O)O)[C@@H](O)[C@H](O)[C@H]1O (some centres unmarked) [M8, Hesperetin 3'-O-glucuronide]; 16
5. COc1ccc([C@@H]2CC(=O)c3c(O)cc(O)cc3O2)cc1O; 8
6. O=C1C[C@@H](c2ccc(O)cc2)Oc2cc(O[C@@H]3O[C@H](C(=O)O)[C@@H](O)[C@H](O)[C@H]3O)cc(O)c21 [M3, Naringenin 7-O-glucuronide]; 16
7. COc1ccc([C@@H]2CC(=O)c3c(O)cc(O[C@@H]4O[C@H](C(=O)O)[C@@H](O)[C@H](O)[C@H]4O)cc3O2)cc1O [M7, Hesperetin 7-O-glucuronide]; 16

Attention now turns to another entry.
Problem: Return the recorded Occurrence Plasma LE (number of volunteers in whom metabolite was detected) value; entry: `O=C1C[C@@H](c2ccc(O)cc2)Oc2cc(O)cc(O)c21`
Solution: 6

---

assay: Urinary excretion of quantified metabolites in collected fractions after extract intake; format: in vivo, human; conditions: after consuming orange extract; fraction 8 to 10 h; mean ± SD
Define the label as 1 (yes) when Metabolite quantified in urine fraction F3 is strictly less than 2 μg/mg creatinine and as 0 (no) in all remaining cases.

1. O=C1C[C@@H](c2ccc(O[C@@H]3O[C@H](C(=O)O)[C@@H](O)[C@H](O)[C@H]3O)cc2)Oc2cc(O)cc(O)c21 [M5, Naringenin 4'-O-glucuronide]; 1 (yes)
2. O=C1C[C@@H](c2ccc(O)cc2)Oc2cc(O[C@@H]3O[C@H](C(=O)O)[C@@H](O)[C@H](O)[C@H]3O)cc(O)c21 [M3, Naringenin 7-O-glucuronide]; 1 (yes)
3. COc1ccc(C2CC(=O)c3c(O)cc(O)cc3O2)cc1O[C@@H]1O[C@H](C(=O)O)[C@@H](O)[C@H](O)[C@H]1O (some centres unmarked) [M8, Hesperetin 3'-O-glucuronide]; 0 (no)
4. COc1ccc([C@@H]2CC(=O)c3c(O)cc(O[C@@H]4O[C@H](C(=O)O)[C@@H](O)[C@H](O)[C@H]4O)cc3O2)cc1O [M7, Hesperetin 7-O-glucuronide]; 0 (no)

Kindly consider the entry below.
Problem: Threshold test, Metabolite quantified in urine fraction F3 < 2 μg/mg creatinine: COc1ccc(C2CC(=O)c3c(O)cc(O)cc3O2)cc1OS(=O)(=O)O (centres unmarked) [M14, Hesperetin 3'-O-sulfate]
Solution: 1 (yes)

---

assay: Urinary excretion of quantified metabolites in collected fractions after extract intake; type: in vivo, human; settings: after consuming lemon extract; fraction 4 to 8 h; mean ± SD
Attribute Measured: Metabolite quantified in urine fraction F2 (μg/mg creatinine)
Number in μg/mg creatinine, nothing else.

Check out these entries, answers already filled in.
1) O=C1C[C@@H](c2ccc(O[C@@H]3O[C@H](C(=O)O)[C@@H](O)[C@H](O)[C@H]3O)cc2)Oc2cc(O)cc(O)c21 [M5, Naringenin 4'-O-glucuronide]; 1.7
2) COc1ccc(C2CC(=O)c3c(O)cc(O)cc3O2)cc1O[C@@H]1O[C@H](C(=O)O)[C@@H](O)[C@H](O)[C@H]1O (some centres unmarked) [M8, Hesperetin 3'-O-glucuronide]; 10.7
3) COc1ccc(C2CC(=O)c3c(O)cc(O)cc3O2)cc1OS(=O)(=O)O (centres unmarked) [M14, Hesperetin 3'-O-sulfate]; 4.3
4) O=C1C[C@@H](c2ccc(O)cc2)Oc2cc(O[C@@H]3O[C@H](C(=O)O)[C@@H](O)[C@H](O)[C@H]3O)cc(O)c21 [M3, Naringenin 7-O-glucuronide]; 2.6

Problem: Return the recorded Metabolite quantified in urine fraction F2 value; entry: COc1ccc([C@@H]2CC(=O)c3c(O)cc(O[C@@H]4O[C@H](C(=O)O)[C@@H](O)[C@H](O)[C@H]4O)cc3O2)cc1O [M7, Hesperetin 7-O-glucuronide]
Solution: 4.0
